Data provenance is paper PMC5540273.

Tested on: CDK7;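 note: KINOMEscan kinase panel screen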
ASSAY SETUP: concentration: 1 μM, replicates: in singlicate; n = 1
%Inh for assorted molecules
ASSAY ENDPOINT: %Inh (%)

# MOLECULE, TARGET DESC, RESULT VALUE
records = [
    ("Nc1n[nH]c2cnc(-c3ccccc3)cc12", "CDK7", 22),
    ("O=C(NC1CCN(c2ccnc(Nc3ccc(F)cc3)n2)C1)c1cc2ccccc2s1 (stereo not drawn)", "CDK7", 0),
    ("Cl.Cl.NCC(NCc1ccc(-c2ccnc3[nH]ccc23)s1)c1ccccc1 (stereo not drawn)", "CDK7", 65),
    ("COc1cccc(C(=O)Nc2cccc(Oc3ccc4nc(NC(=O)C5CC5)cn4n3)c2)c1", "CDK7", 0),
    ("c1ccc(-c2cnc3nccnn23)cc1", "CDK7", 0),
    ("COc1ccc(-c2coc3ccc(-c4nnc(SCc5ccc(OC)c(C(F)(F)F)c5)o4)cc23)cc1", "CDK7", 0),
    ("O=C(Nc1ccccc1F)NC1CCN(c2ccnc(Nc3ccc(F)cc3)n2)CC1", "CDK7", 0),
    ("O=C(Nc1cccc(-c2nn3ccccc3c2-c2ccnc(Nc3cccc(C(F)(F)F)c3)n2)c1)c1c(F)cccc1F", "CDK7", 6),
    ("c1ccc(-c2n[nH]cc2Nc2ccnc3ccccc23)nc1", "CDK7", 47),
    ("COc1cccc(-c2ccc3c(NC(=O)C4CC4)n[nH]c3n2)c1", "CDK7", 0),
    ("Cc1cccc(NC(=O)Nc2ccc(Oc3ncnc4ccn(C)c34)cc2)c1", "CDK7", 0),
    ("COc1ccc(Nc2nccc(NCCNC(=O)c3cc4ccccc4s3)n2)cc1", "CDK7", 0),
    ("COc1cc(Nc2nccc(N3CCC(NC(=O)c4cc5ccccc5s4)C3)n2)cc(OC)c1OC (stereo not drawn)", "CDK7", 16),
    ("Cl.c1ccc(-c2ccc3c(Nc4ccc5[nH]ncc5c4)ccnc3c2)nc1", "CDK7", 8),
    ("O=C(Nc1cccc(Oc2ccc3nc(NC(=O)C4CC4)cn3n2)c1)c1ccccc1C(F)(F)F", "CDK7", 0),
    ("CCc1ccc(-c2ccc3c(c2)-c2c(cnn2C)S(=O)(=O)N3C)cc1", "CDK7", 6),
    ("Clc1ccc(-c2nn3ncccc3c2-c2ccnc(Nc3ccc4c(c3)OCCO4)n2)cc1", "CDK7", 0),
    ("Fc1ccc(-c2ncn(C3CCNCC3)c2-c2ccnc(Oc3ccc(-c4ccccc4)cc3)n2)cc1", "CDK7", 41),
]
